- TARGET OR SYSTEM: T1, 4H56-bH
- T1 chain: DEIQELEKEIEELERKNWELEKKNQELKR
- ASSAY PROTOCOL: two-hybrid library CCNG1;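 also: natural log of median RNA to DNA barcode read ratio; higher means stronger binding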
VALUE TYPE: interaction score

Below, 3 binders whose answers are already recorded.
BINDER: DEIQELEKKIEELKRENWELKKKIQELER [4H349-bH]
interaction score: 0.452
--
BINDER: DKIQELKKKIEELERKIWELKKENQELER [4H2859-bH]
interaction score: 0.547
--
BINDER: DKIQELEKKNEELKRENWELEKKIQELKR [4H2518-bH]
interaction score: -1.35

P: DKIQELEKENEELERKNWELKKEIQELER [4H2233-bH]
Q: DKNQELEKKIEELERKIWELEKENQELKR [4H3364-bH]
R: DKIQELKKKNEELKRKIWELEKEIQELER [4H3041-bH]
S: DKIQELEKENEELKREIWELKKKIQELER [4H2253-bH]
Q. Order the 4 binders from highest to lowest interaction score. Put the labels in the order asked and list them.
A. R, Q, P, S
